# credit: the supplement of paper PMC10307832

Reported relative viability values follow for various compounds
System: HCC-366
Test: relative viability (nuclei count vs DMSO), 5 days (fraction); higher = more cells survive
Settings: first compound 0.01 µM
Form rule: numeric answer, no unit written next to it.

Solved entries:
Inquiry: Consider the compound Cc1cn(-c2cc(NC(=O)c3ccc(C)c(Nc4nccc(-c5cccnc5)n4)c3)cc(C(F)(F)F)c2)cn1 [Nilotinib] + C[C@]1(O)C[C@@H](c2nc(-c3ccc4ccc(-c5ccccc5)nc4c3)c3c(N)nccn32)C1 [Linsitinib] (partner 1 µM) . State its measured relative viability.
Reply text: 0.857

Inquiry: Could you please provide reported relative viability for Cc1cn(-c2cc(NC(=O)c3ccc(C)c(Nc4nccc(-c5cccnc5)n4)c3)cc(C(F)(F)F)c2)cn1 [Nilotinib] + Nc1nc2[nH]cc(CCc3ccc(C(=O)N[C@@H](CCC(=O)O)C(=O)O)cc3)c2c(=O)[nH]1 [Pemetrexed] (partner 0.2 µM) ? Thanks!
Reply text: 0.163

Proceeding to the next compound to report its relative viability.
Inquiry: Please report the measured relative viability for Cc1cn(-c2cc(NC(=O)c3ccc(C)c(Nc4nccc(-c5cccnc5)n4)c3)cc(C(F)(F)F)c2)cn1 [Nilotinib] + N=C(N)NC(=N)NCCc1ccccc1 [Phenformin] (partner 250 µM)
Reply text: 0.655
